System: M. tuberculosis H37Rv growth inhibition
Procedure details: M. tuberculosis H37Rv growth inhibitors, H37Rv strain (AID 1626)
Test parameters: measured here: Vero cell cytotoxicity
Below, each of the compounds is paired with its reported CC50 value.
Parameter measured: CC50 (µM)

>>> assay_value("CCOC(=O)c1ccc(NC(=O)COc2ccccc2CNCCc2ccccc2)cc1")
25.2
>>> assay_value("Cc1cc(C)n(-c2nc(SCCN(C)C)c3c4c(sc3n2)CCCC4)n1")
11.6
>>> assay_value("CC(C)(C)c1cc(NCCCn2ccnc2)n2ncc(-c3ccccc3)c2n1")
15.9

* * *

Below, each of the molecules is paired with its reported CC50 value.
System: M. tuberculosis H37Rv growth inhibition
Procedure details: M. tuberculosis H37Rv growth inhibitors, H37Rv strain (AID 1626)
Test parameters: measured here: Vero cell cytotoxicity
Parameter measured: CC50 (µM)

>>> assay_value("Oc1c(CN2CCc3ccccc3C2)cc(Cl)c2cccnc12")
4.88
>>> assay_value("COc1ccc(/C=C2\\COc3ccccc3C2=O)cc1OC")
29.2
>>> assay_value("O=C(Nc1nnc(-c2ccccc2)o1)c1ccc(Cl)cc1")
34.3
>>> assay_value("CCC(=O)Nc1cccc(C(=O)/C=C/c2ccccc2)c1")
10.7
>>> assay_value("Cc1ccc(NC2=CC(=O)C(=O)c3ccccc32)cc1")
6.94
>>> assay_value("Cc1cccc(Cc2cnc(N3C(=N)SC(c4ccccc4)C3=O)s2)c1 (configuration not stated)")
36.8
>>> assay_value("Nc1[nH]n2c(=O)c3c(nc2c1N=Nc1ccc(Cl)cc1)CCCC3")
25.4
>>> assay_value("CCN1CCN(Cc2ccc(NC(=O)c3ccc(C)c(NC(=O)C(=O)c4c[nH]c5ccccc45)c3)cc2C(F)(F)F)CC1")
6.73
>>> assay_value("Cc1cc2oc3c(c(=O)c2cc1C)C(c1cccc(Br)c1)N(Cc1ccco1)C3=O (configuration not stated)")
13.9
>>> assay_value("CCOc1ccc2nc(NC(=O)c3cnc(C)cn3)sc2c1")
40
>>> assay_value("O=c1[nH]c(-c2ccccn2)nc(C(F)(F)F)c1Br")
33.4
